# Tested on: S. cerevisiae
# assay summary: fungistatic MIC assay in antifungal agar
# Format: cell-based
# cond: S. cerevisiae, minimum concentration for 100% inhibition after 24 hours at 37° C.
# Description: The compounds of Table 1 were tested for fungistatic activity with an assay based on the work of Gordon, Lapa et.al. (18) with the nonpathogenic yeast S. cerevisiae in which ketoconazole is used as control. A semisolid is prepared to which is added serial dilutions of peptide. […] Minimum inhibitory concentration MIC, i.e. the concentration of the peptide under test which prevents growth, as observed visually, is recorded for each sample so that low values of MIC indicate potent antifungal compounds. […]
Positions of bridges follow the written chain, without caps; N, C: chain ends. No end group written: not given here.
recorded metric: MIC range

substance	MIC range
Arg His His Cys Tyr Lys Arg Lys Phe His Glu Lys His His Cys His Arg Gly Tyr [Db3-53] (RHHCYKRKFHEKHHCHRGY; also: cyclic analogue, ring not given here)	>5
Arg His His Cys Tyr Lys Arg Lys Phe His Glu Lys His His Cys His (RHHCYKRKFHEKHHCH; disulfide 4-15 (inferred)) [Db3-25]	>5.2
Arg His His Gly Tyr Lys Cys Lys Phe His Glu Lys His His Cys His Arg Gly Tyr (RHHGYKCKFHEKHHCHRGY; disulfide 7-15 (inferred)) [Db2-180]	1.25-2.5

query: Quick check: MIC range on S. cerevisiae, item Arg His His Cys Tyr Lys Arg Lys Phe His Glu Lys His His Cys His Arg Gly Tyr [Db3-35] (RHHCYKRKFHEKHHCHRGY; also: cyclic analogue, ring not given here) ?
result: 1.3-2.5

query: Now consider Arg His His Gly Tyr Cys Arg Lys Phe His Glu Lys His His Cys His Arg Gly Tyr (RHHGYCRKFHEKHHCHRGY; disulfide 6-15 (inferred)) [Db2-179] and answer again.
result: 2.5-5
